- assayedTarget: CFTR-mediated chloride transport in human intestinal epithelial enteroid cells (Homo sapiens, UniProt P13569)
- Sequence (P13569 with tags, fused parts or gaps DEL508-508): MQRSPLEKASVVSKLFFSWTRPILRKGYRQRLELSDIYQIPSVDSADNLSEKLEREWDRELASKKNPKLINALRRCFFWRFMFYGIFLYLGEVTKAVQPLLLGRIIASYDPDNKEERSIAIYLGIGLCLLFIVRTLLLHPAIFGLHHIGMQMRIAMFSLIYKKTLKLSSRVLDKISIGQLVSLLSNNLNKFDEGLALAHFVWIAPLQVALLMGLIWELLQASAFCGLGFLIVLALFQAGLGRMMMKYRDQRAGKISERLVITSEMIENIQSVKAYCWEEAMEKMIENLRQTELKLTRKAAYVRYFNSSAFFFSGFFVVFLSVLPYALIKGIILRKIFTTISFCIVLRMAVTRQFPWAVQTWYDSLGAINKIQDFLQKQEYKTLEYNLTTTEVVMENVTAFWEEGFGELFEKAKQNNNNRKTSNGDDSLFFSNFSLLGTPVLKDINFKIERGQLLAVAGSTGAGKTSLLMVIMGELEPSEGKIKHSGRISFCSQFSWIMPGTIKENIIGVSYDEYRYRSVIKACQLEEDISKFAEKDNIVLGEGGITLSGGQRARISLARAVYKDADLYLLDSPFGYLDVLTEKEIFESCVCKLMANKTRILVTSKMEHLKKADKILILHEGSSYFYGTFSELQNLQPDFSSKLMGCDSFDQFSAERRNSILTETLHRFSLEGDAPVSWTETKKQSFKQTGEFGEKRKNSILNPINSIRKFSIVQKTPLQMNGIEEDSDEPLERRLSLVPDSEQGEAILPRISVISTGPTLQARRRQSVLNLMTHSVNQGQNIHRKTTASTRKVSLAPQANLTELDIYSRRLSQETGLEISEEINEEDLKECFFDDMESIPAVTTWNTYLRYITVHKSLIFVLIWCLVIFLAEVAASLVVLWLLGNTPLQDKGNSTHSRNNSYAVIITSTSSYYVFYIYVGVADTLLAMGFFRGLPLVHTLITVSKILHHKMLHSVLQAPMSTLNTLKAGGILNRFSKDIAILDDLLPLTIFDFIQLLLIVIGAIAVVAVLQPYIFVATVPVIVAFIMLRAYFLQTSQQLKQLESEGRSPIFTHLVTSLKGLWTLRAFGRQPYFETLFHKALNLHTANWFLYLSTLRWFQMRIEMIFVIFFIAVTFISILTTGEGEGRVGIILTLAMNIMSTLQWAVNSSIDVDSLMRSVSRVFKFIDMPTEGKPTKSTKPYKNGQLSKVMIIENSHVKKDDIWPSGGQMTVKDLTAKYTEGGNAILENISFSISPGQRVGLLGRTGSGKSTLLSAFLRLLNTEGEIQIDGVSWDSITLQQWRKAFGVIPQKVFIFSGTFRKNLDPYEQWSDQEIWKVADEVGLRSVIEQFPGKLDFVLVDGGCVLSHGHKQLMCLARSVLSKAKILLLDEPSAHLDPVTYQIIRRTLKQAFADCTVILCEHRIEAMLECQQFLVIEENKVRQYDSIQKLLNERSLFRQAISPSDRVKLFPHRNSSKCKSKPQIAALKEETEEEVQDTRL
- testDetails: Membrane potential dye, Enteroid Assay A
- Format: cell-based
- reportedConditions: % of chloride transport of triple combination control (3 μM N-[(6-amino-2-pyridyl)sulfonyl]-6-(3-fluoro-5-isobutoxy-phenyl)-2-[(4S)-2,2,4-trimethylpyrrolidin-1-yl]pyridine-3-carboxamide, 3 μM tezacaftor, 300 nM acute ivacaftor)
observationType: Ent. A Max Activity (%)

Cc1cccc(C)c1-c1cc2nc(n1)NS(=O)(=O)c1cccc(n1)NC(=O)C1CC(CN(C(=O)OC(C)(C)C)C1)O2 (stereo not shown) [Compound 13]	+++ (+++ is >60%)
Cc1cccc(C)c1-c1cc2nc(n1)NS(=O)(=O)c1cccc(c1)NC(=O)CCCc1cccc(c1)O2	+++ (+++ is >60%)
